Where these numbers come from: paper PMC11349179

TARGET SYSTEM: DmDM15 (fruit fly, UniProt A0A0B4K7Y7 1330-1481)
Sequence (A0A0B4K7Y7 entry or part of it): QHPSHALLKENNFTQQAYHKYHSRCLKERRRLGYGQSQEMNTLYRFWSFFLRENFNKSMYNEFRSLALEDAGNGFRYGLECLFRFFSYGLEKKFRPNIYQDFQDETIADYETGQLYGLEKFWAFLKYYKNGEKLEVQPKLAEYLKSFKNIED
RUN DESCRIPTION: EMSA; EMSA: 20 mM Tris-HCl pH 8, 150 mM NaCl, 10% glycerol, 1 mM DTT, 0.5 ug tRNA, 1 ug BSA, pM RNA (95 C, snap cooled), 0.5-1 h on ice; native 7% PAGE, 0.5X TBE
MEASUREMENT SETUP: protein: recombinant; tags: His6-MBP removed by TEV; label: 32P in cap; 5' end paired in one predicted fold
RECORDED ENDPOINT: Kd (nM)
// note: answer is a bare numeric in nM

Lookup: Could you tell me which Kd is on file for CCUUCUCCCCGGCGGUUAGUGCUGAGAGUGCGGAGUGUGUGC (structured_RNA, 5' m7G cap (Vaccinia capping)) [HsPABPC1 42-mer, capped] ?
Found: 140
